All values here come from ChEMBL document CHEMBL4219037.

Test system: MCF7
test-protocol: Antiproliferative activity against human MCF7 cells after 72 hrs by MTS assay
Assay type: functional, cell-based
protocol-conditions: MCF7, 72 h
pIC50: −log10 of the molar value.
endpoint-label: pIC50

>>> df
                                smiles_data   val
0  CC(C)=CCc1cc(C(=O)NCCc2cc(C)c(OC3CCN(C)CC3)cc2-c2cccc(F)c2)ccc1O  4.45
1  COc1cccc(-c2cc(C(=O)NCCc3c(O)cc(OC4CCN(C)CC4)cc3-c3cccc(F)c3)ccc2OC)c1  4.91
2  COc1cccc(-c2cc(C(=O)NCCc3cc(C)c(OC4CCN(C)CC4)cc3-c3cccc(F)c3)ccc2OC)c1  5.04
3  COc1cccc(-c2cc(C(=O)NCCc3ccc(OC4CCN(C)CC4)c(C)c3-c3cccc(F)c3)ccc2OC)c1  4.75

###

Test system: MCF7
test-protocol: Antiproliferative activity against human MCF7 cells after 72 hrs by MTS assay
Assay type: functional, cell-based
protocol-conditions: MCF7, 72 h
pIC50: −log10 of the molar value.
Respond with yes (1) for pIC50 values of 5 and above, no (0) for values below.

                                smiles_data  class_name
0  CC(C)=CCc1cc(C(=O)NCCc2ccc(OC3CCN(C)CC3)c(O)c2-c2cccc(F)c2)ccc1O     yes (1)
1  COc1cccc(-c2cc(C(=O)NCCc3c(O)cc(O[C@@H]4OC(C)(C)[C@H](OC)[C@@H](O)[C@H]4O)cc3-c3cccc(F)c3)ccc2OC)c1      no (0)
2  CC(C)=CCc1cc(C(=O)NCCc2c(O)cc(OC3CCN(C)CC3)cc2-c2cccc(F)c2)ccc1O     yes (1)
3  COc1cccc(-c2cc(C(=O)NCCc3ccc(OC4CCN(C)CC4)cc3-c3cccc(F)c3)ccc2OC)c1      no (0)
4  CO[C@@H]1[C@@H](O)[C@@H](O)[C@H](Oc2ccc(CCNC(C)=O)c(-c3cccc(F)c3)c2)OC1(C)C      no (0)
5  COc1cccc(-c2cc(C(=O)NCCc3ccc(O[C@@H]4OC(C)(C)[C@H](OC)[C@@H](O)[C@H]4O)cc3-c3cccc(F)c3)ccc2OC)c1      no (0)
6  COc1cccc(-c2cc(C(=O)NCCc3c(OC)cc(O[C@@H]4OC(C)(C)[C@H](OC)[C@@H](O)[C@H]4O)cc3-c3cccc(F)c3)ccc2OC)c1      no (0)
7  COc1cccc(-c2cc(C(=O)NCCc3cc(C)c(O[C@@H]4OC(C)(C)[C@H](OC)[C@@H](O)[C@H]4O)cc3-c3cccc(F)c3)ccc2OC)c1      no (0)

###

Test system: MCF7
test-protocol: Antiproliferative activity against human MCF7 cells after 72 hrs by MTS assay
Assay type: functional, cell-based
protocol-conditions: MCF7, 72 h
Overview of recorded IC50 for various compounds
endpoint-label: IC50 (µM)

>>> df
                                smiles_data  endpoint_label   val
0  COc1cccc(-c2cc(C(=O)NCCc3ccc(O[C@@H]4OC(C)(C)[C@H](OC)[C@@H](O)[C@H]4O)c(C)c3-c3cccc(F)c3)ccc2OC)c1            IC50  8.99
1  COc1cc(OC2CCN(C)CC2)cc(-c2cccc(F)c2)c1CCNC(=O)c1ccc(O)c(CC=C(C)C)c1            IC50  7.86
2  COc1cccc(-c2cc(C(=O)NCCc3ccc(OC4CCN(C)CC4)c(O)c3-c3cccc(F)c3)ccc2OC)c1            IC50  11.3
3  COc1cccc(-c2cc(C(=O)NCCc3c(OC)cc(OC4CCN(C)CC4)cc3-c3cccc(F)c3)ccc2OC)c1            IC50  8.71
4  COc1cccc(-c2cc(C(=O)NCCc3ccc(OC4CCN(C)CC4)c(N)c3-c3cccc(F)c3)ccc2OC)c1            IC50  11.3
